TGT: Potassium-transporting ATPase (Homo sapiens, UniProt P20648)
METHOD_NOTES: Antisecretory activity evaluated by the inhibition of 14C -AP uptake in isolated rabbit parietal cells stimulated by dibutyryl cyclic adenosine 3', 5' -monophosphate (dcAMP)
Format: functional, Oryctolagus cuniculus
pIC50: −log10 of the molar value.
VALUE_TYPE: pIC50

Query: Give a short answer stating reported pIC50 for CN/C(=N\CCSCc1nc[nH]c1C)NC#N [CIMETIDINE] .
Result: < 4.00

---

Tested on: Rattus norvegicus
METHOD_NOTES: Percent inhibition of total acid secretion in pylorus-ligated rats at an id dose of 40 mg/kg
Type: functional
SETUP_CONDITIONS: route intraduodenal
# binarize inhibition in vivo at 40 mg/kg: threshold 80% inclusive, high side Y, low side N

Query: Confirm if inhibition in vivo at 40 mg/kg reported for the compound `c1ccc(-c2nc(-c3ccc(OCCCCn4ccnc4)cc3)cs2)cc1` is 80% or above.
Result: N

Query: Confirm if inhibition in vivo at 40 mg/kg reported for the compound `CCCCN(CCCC)CCCOc1ccc(/C=C/c2nc3ccc(OC)cc3o2)cc1` is 80% or above.
Result: N

Query: Confirm if inhibition in vivo at 40 mg/kg reported for the compound `CCCCN(CCCC)CCCCOc1ccc(/C=C/c2nc3ccccc3o2)cc1` is 80% or above.
Result: N

Query: Confirm if inhibition in vivo at 40 mg/kg reported for the compound `C(=C\c1nc2ccccc2s1)/c1ccc(OCCCCn2ccnc2)cc1` is 80% or above.
Result: N

Query: Confirm if inhibition in vivo at 40 mg/kg reported for the compound `CCN(CC)CCCOc1ccc(/C=C/c2nc3ccccc3o2)cc1` is 80% or above.
Result: N

---

TGT: Potassium-transporting ATPase (Homo sapiens, UniProt P20648)
METHOD_NOTES: Antisecretory activity evaluated by the inhibition of 14C -AP uptake in isolated rabbit parietal cells stimulated by dibutyryl cyclic adenosine 3', 5' -monophosphate (dcAMP)
Type: functional, Oryctolagus cuniculus
SETUP_CONDITIONS: target entry is the homologue from another species
# note: exactly 300 nM is not below, so it is Condition not met; use Condition met for IC50 strictly under it

Study these solved cases before continuing.
| CHEMICAL_STRING | TGT | ANSWER_LABEL |
| --- | --- | --- |
| CCN(CC)CCCOc1ccc(-c2csc(-c3ccccc3)n2)cc1 | Potassium-transporting ATPase (Homo sapiens, UniProt P20648) | Condition met |
| CCCCN(CCCC)CCCOc1ccc(/C=C/c2nc3cc(C)ccc3o2)cc1 | Potassium-transporting ATPase (Homo sapiens, UniProt P20648) | Condition not met |
| CCCN(CCC)CCCCOc1ccc(/C=C/c2nc3ccccc3s2)cc1.Cl.O | Potassium-transporting ATPase (Homo sapiens, UniProt P20648) | Condition met |

Query: Is 300 nM strictly greater than the compound's reported IC50? compound: `CCCCN(CCCC)CCCOc1ccc(-c2csc(-c3ccccc3)n2)cc1.Cl`
Result: Condition not met

Query: Is 300 nM strictly greater than the compound's reported IC50? compound: `CCCCN(CCCC)CCCOc1ccc(/C=C/c2nc3ccc(OC)cc3o2)cc1`
Result: Condition met

Query: Is 300 nM strictly greater than the compound's reported IC50? compound: `c1ccc(-c2nc(-c3ccc(OCCCN4CCCCC4)cc3)cs2)cc1`
Result: Condition met

Query: Is 300 nM strictly greater than the compound's reported IC50? compound: `C(=C\c1nc2ccccc2o1)/c1ccc(OCCCCN2CCCC2)cc1`
Result: Condition met

Query: Is 300 nM strictly greater than the compound's reported IC50? compound: `CCCCN(CCCC)CCCOc1ccc(-c2nc(-c3ccccc3)sc2CC)cc1`
Result: Condition met

Query: Is 300 nM strictly greater than the compound's reported IC50? compound: `CCCCN(CCCC)CCCOc1ccc(-c2nc3ccccc3[nH]2)cc1`
Result: Condition not met

Query: Is 300 nM strictly greater than the compound's reported IC50? compound: `CCCCN(CCCC)CCCOc1ccc(-c2csc(-c3cc(OC)cc(OC)c3)n2)cc1`
Result: Condition not met

Query: Is 300 nM strictly greater than the compound's reported IC50? compound: `C(=C\c1nc2ccccc2s1)/c1ccc(OCCCn2ccnc2)cc1`
Result: Condition not met

Query: Is 300 nM strictly greater than the compound's reported IC50? compound: `CCCCN(CCCC)CCCOc1ccc(/C=C/c2nc3ccccc3s2)cc1`
Result: Condition met

Query: Is 300 nM strictly greater than the compound's reported IC50? compound: `CCCCN(CCCC)CCOc1ccc(/C=C/c2nc3ccccc3o2)cc1`
Result: Condition not met

Query: Is 300 nM strictly greater than the compound's reported IC50? compound: `CCCCN(CCCC)CCCOc1ccc(/C=C/c2nc3ccc(OC)cc3s2)cc1`
Result: Condition not met

Query: Is 300 nM strictly greater than the compound's reported IC50? compound: `CCCCN(CCCC)CCCOc1ccc(-c2csc(-c3ccc(C)cc3)n2)cc1`
Result: Condition not met

Query: Is 300 nM strictly greater than the compound's reported IC50? compound: `C(=C\c1nc2ccccc2s1)/c1ccc(OCCCN2CCCCC2)cc1`
Result: Condition met

Query: Is 300 nM strictly greater than the compound's reported IC50? compound: `CCCN(CCC)CCCOc1ccc(-c2nc3ccccc3s2)cc1`
Result: Condition met

Query: Is 300 nM strictly greater than the compound's reported IC50? compound: `CCCN(CCC)CCCOc1ccc(/C=C/c2nc3ccccc3s2)cc1`
Result: Condition met

Query: Is 300 nM strictly greater than the compound's reported IC50? compound: `C(=C\c1nc2ccccc2o1)/c1ccc(OCCCCN2CCCCC2)cc1`
Result: Condition not met

---

Each entry below lists one item and its recorded IC50 value.
TGT: Potassium-transporting ATPase (Homo sapiens, UniProt P20648)
METHOD_NOTES: Antisecretory activity evaluated by the inhibition of 14C -AP uptake in isolated rabbit parietal cells stimulated by exogenous histamine
Format: functional, Oryctolagus cuniculus
SETUP_CONDITIONS: target entry is the homologue from another species
Reply numerically in nM, unit not repeated.

Some molecules with known IC50 results, for comparison:
| MOLECULE | U | VALUE_REPORTED |
| --- | --- | --- |
| C(=C\c1nc2ccccc2o1)/c1ccc(OCCCCN2CCCC2)cc1 | nM | 170 |
| CCN(CC)CCCCOc1ccc(/C=C/c2nc3ccccc3s2)cc1 | nM | 180 |
| c1ccc(-c2nc(-c3ccc(OCCCn4ccnn4)cc3)cs2)cc1 | nM | 10000 |
| CCCCN(CCCC)CCCOc1ccc(/C=C/c2nc3ccccc3n2C)cc1 | nM | 800 |
| CCCCN(CCCC)CCCOc1ccc(/C=C/c2nc3cc(C)ccc3o2)cc1 | nM | 260 |

Query: Give a short answer stating reported IC50 for `CCCCN(CCCC)CCOc1ccc(/C=C/c2nc3ccccc3s2)cc1` .
Result: 430

Query: Give a short answer stating reported IC50 for `CCN(CC)CCCCOc1ccc(/C=C/c2nc3ccccc3o2)cc1` .
Result: 80

Query: Give a short answer stating reported IC50 for `CCCN(CCC)CCCOc1ccc(-c2nc3ccccc3s2)cc1` .
Result: 210

Query: Give a short answer stating reported IC50 for `CCCCN(CCCC)CCCOc1ccc(/C=C/c2nc3ccccc3[nH]2)cc1` .
Result: 2300

---

Each entry below lists one item and its recorded pIC50 value.
TGT: Potassium-transporting ATPase (Homo sapiens, UniProt P20648+P51164)
Sequence (P20648 whole entry): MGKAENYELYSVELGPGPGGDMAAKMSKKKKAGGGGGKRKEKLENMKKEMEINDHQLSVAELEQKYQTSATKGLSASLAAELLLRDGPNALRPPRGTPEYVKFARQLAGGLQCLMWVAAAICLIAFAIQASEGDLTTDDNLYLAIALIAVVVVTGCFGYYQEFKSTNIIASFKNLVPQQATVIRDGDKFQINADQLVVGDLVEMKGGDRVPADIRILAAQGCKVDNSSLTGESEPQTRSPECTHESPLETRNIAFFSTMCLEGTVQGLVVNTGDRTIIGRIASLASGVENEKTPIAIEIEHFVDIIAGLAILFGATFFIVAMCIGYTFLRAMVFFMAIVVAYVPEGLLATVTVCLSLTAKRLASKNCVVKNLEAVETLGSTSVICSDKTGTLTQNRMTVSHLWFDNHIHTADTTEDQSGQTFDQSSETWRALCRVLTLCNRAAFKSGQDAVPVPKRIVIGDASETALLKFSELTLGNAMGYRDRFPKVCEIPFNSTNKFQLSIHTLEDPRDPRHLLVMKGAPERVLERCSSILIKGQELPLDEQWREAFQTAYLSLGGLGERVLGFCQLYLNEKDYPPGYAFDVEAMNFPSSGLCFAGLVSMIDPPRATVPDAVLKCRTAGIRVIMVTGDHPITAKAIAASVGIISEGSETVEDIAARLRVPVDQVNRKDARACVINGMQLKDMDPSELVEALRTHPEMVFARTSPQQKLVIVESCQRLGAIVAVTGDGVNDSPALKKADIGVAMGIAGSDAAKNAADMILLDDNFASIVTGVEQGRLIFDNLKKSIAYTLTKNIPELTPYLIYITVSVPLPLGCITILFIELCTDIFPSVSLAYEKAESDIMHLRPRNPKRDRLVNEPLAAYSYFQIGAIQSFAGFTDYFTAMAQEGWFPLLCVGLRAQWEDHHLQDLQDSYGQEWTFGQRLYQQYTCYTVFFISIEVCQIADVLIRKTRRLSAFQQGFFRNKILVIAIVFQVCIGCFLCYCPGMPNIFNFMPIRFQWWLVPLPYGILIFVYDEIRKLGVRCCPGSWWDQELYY
Sequence (P51164 whole entry): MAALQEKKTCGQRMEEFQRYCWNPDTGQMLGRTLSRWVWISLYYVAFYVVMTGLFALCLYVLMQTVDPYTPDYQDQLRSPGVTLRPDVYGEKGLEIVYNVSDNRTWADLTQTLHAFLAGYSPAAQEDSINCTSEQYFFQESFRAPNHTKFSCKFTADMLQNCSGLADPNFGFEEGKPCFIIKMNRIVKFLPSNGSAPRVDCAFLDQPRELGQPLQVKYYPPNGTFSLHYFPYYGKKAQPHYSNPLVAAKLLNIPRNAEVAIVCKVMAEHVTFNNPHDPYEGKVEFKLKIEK
METHOD_NOTES: Antisecretory activity evaluated by the inhibition of 14C -AP uptake in isolated rabbit parietal cells stimulated by dibutyryl cyclic adenosine 3', 5' -monophosphate (dcAMP)
SETUP_CONDITIONS: target entry is the homologue from another species
pIC50: −log10 of the molar value.

| CHEMICAL_STRING | VALUE_REPORTED |
| --- | --- |
| CCCCN(CCCC)CCCCOc1ccc(/C=C/c2nc3ccccc3o2)cc1 | > 5.00 |

Moving on to the next compound.
Query: Give a short answer stating reported pIC50 for `c1ccc(-c2nc(-c3ccc(OCCCN4CCCC4)cc3)cs2)cc1` .
Result: > 5.00

---

TGT: Potassium-transporting ATPase (Homo sapiens, UniProt P20648)
METHOD_NOTES: Antisecretory activity evaluated by the inhibition of 14C -AP uptake in isolated rabbit parietal cells stimulated by exogenous histamine
Format: functional, Oryctolagus cuniculus
SETUP_CONDITIONS: target entry is the homologue from another species
VALUE_TYPE: pIC50
Notebook: values listed as pIC50 are -log10 of the concentration (mol/L).

Some molecules with known pIC50 results, for comparison:
| CHEMICAL_STRING | pIC50 |
| --- | --- |
| CCCCN(CCCC)CCCCCOc1ccc(-c2csc(-c3ccccc3)n2)cc1 | 6.31 |
| c1ccc(-c2nc(-c3ccc(OCCCCn4ccnc4)cc3)cs2)cc1 | 6.09 |
| CCCN(CCC)CCCOc1ccc(/C=C/c2nc3ccccc3s2)cc1 | 6.68 |
| C(=C\c1nc2ccccc2s1)/c1ccc(OCCCCn2ccnc2)cc1 | 6.70 |
| CCCCN(CCCC)CCCOc1ccc(-c2csc(-c3ccc(Cl)cc3)n2)cc1 | 5.68 |

Query: Give a short answer stating reported pIC50 for `CCCCN(CCCC)CCCOc1ccc(-c2csc(-c3cccnc3)n2)cc1` .
Result: 5.78

Query: Give a short answer stating reported pIC50 for `CCCCN(CCCC)CCCCOc1ccc(/C=C/c2nc3ccccc3o2)cc1` .
Result: 6.74

Query: Give a short answer stating reported pIC50 for `C(=C\c1nc2ccccc2o1)/c1ccc(OCCCn2ccnc2)cc1` .
Result: 6.54

Query: Give a short answer stating reported pIC50 for `CCN(CC)CCCOc1ccc(-c2csc(-c3ccccc3)n2)cc1` .
Result: 6.92

Query: Give a short answer stating reported pIC50 for `CCCCN(CCCC)CCCOc1ccc(-c2nc3ccccc3[nH]2)cc1` .
Result: 5.74

Query: Give a short answer stating reported pIC50 for `CCCN(CCC)CCCCOc1ccc(/C=C/c2nc3ccccc3o2)cc1.Cl` .
Result: 6.41
